- Target Under Test: h-TGR5 (Homo sapiens, UniProt Q8TDU6)
- Construct: expressed in transfected cells
- Sequence (Q8TDU6 whole entry): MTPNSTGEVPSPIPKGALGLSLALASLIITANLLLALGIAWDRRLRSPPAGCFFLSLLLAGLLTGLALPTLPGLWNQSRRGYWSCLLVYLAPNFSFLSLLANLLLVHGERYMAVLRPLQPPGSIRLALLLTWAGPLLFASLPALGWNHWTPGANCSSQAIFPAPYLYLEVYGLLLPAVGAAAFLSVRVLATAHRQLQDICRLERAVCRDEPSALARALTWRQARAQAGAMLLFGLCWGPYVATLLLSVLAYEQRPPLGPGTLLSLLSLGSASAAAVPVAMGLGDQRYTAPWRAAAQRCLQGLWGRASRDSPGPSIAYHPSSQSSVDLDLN
- Assay Procedure: TGR5 cAMP Assay using Cisbio cAMP Dynamic2 htrf kit (hTGR5CRE-luc HEK 293 cells)
- Type: cell-based
- Condition Details: h-TGR5 cAMP EC50, Table 1; read-out: cAMP (EC50)
Assign EC50 to each entry below.

Exercise: Tell me the measured EC50 of "COc1cc(C(C)(C)c2cnc(SCc3cc(S(N)(=O)=O)c(Cl)cc3F)n2-c2ccc(F)cc2)ccc1Cl" , please.
Key: < 100 nM

Exercise: Tell me the measured EC50 of "COc1ccc(C(C)(C)c2cnc(SCc3c(F)cccc3Cl)n2-c2ccc(F)cc2)cc1" , please.
Key: 100 to 1000 nM

Exercise: Tell me the measured EC50 of "CC(C)(c1ccc(Cl)c(Cl)c1)c1cnc(SCc2cc(S(N)(=O)=O)c(Cl)cc2Cl)n1-c1ccc(F)cc1" , please.
Key: 100 to 1000 nM

Exercise: Tell me the measured EC50 of "COc1ccc(C(C)(C)c2cnc(COc3c(F)cccc3Cl)n2-c2ccc(F)cc2)cc1OC" , please.
Key: < 100 nM
